- protocol-summary: yeast display, Sf9 membrane polyspecificity reagent, FACS + sequencing; frameworks hold sequencing errors

chain-sequence	polyreactivity (PSR sort gate)
QVHLVESGGGLVQAGGSLRLSCAASGFPFADNAMGWNRQAPGKERELVAAISRRGGSTYYADSVKGRFTISRDNAKNTVYLQMNSLKAEDTAVYYCAALGNRYPYYYYYGSYYPVEYWGQGTQVTVSS	high polyreactivity
QVQLVESGGGLVEAGGSLRLSCAASGRIFVHNAMGWYRHAPGKERELVAVITYSGGRTYYADSVKGRFTISRDNAKNTVYLQMNSLKPEDTAVYYCAVRAYKVSRYYYWGQGTLVTVSS	low polyreactivity
QVQLVESGGGLVQAGGSLRLSCAATGRIFYYYTMGWYRQAPGKERELVAAISWGGVNTDYADSVKGRFTISRDNAKNTVYLQMNSLKPEDTAVYYCAAGRWSVGTYDYWGQGTQVTVSS	low polyreactivity
QVQLVESGGGLVQAGGSLRLSCAASGSIFAFYAMGWYRQAPGKERELVAVISVSDGSTYYADSVKGRFTISRDNAKNTVYLQMKSLKAEDTAVYYCAATPRGSYGYYYWGQGTQVTVSS	low polyreactivity
QVQLVESGGGLVQAGGTLRLSCAASGRTYYGYAMGWYRQATGKERQLVAAIRSTTGSTYYADSVKGRFTISRDNAKITVYLQMNSLKPEDTAVYYCASAYPFYADMDYWGQGTQVTVSS	low polyreactivity
QVQLVESGGVLVQAGGSLRLSCAASGTFYPNARGWYRQAPGKDRELVAALSEDGGGTYYADSVKGRFTISRDNAKNTVYLQMNSLKPEDTAVYYCAAEYYDYWYTFDYWGQGTQVTVSS	high polyreactivity
QVQLVESGGGLVQAGGSHRLSCAASGSTSGINAMGWYRQAPGKERELVAAIRLSGGRTYYADSVKGRFTISRDNAKNTVYLQMNSLKPEDTAVYYCAARYPSRVGYYYLGQGTQVTVSS	high polyreactivity
QVQLVESGGGLVQAGGSLRLSCAASGSTFVRYAMGWYRQAPGKERELVAAISRRGSSTYYADSVKGRFTISRDNAKNTVYLQMNSRKPEDTADYYCAVDYSPGFDDYDYWGQGTHVTVSS	high polyreactivity
QVQLVESGGGLVQAGGSLRLICAASGRIFYYYTMGWYRQAPGKERELVDTIRSGGSTYYADSVKGRFTISRDNAKNTVYLQMNSLKPEDTAVYYCAAAYRTGRGYGFDYWGQGTQVTVSS	high polyreactivity
